# assayedSystem: human PAD4 (Homo sapiens)
# Construct: human PAD4 (NM_012387), A2-P663, was PCR amplified; His-SUMO (N, cleaved yes)
# Sequence (Q9UM07 2-663): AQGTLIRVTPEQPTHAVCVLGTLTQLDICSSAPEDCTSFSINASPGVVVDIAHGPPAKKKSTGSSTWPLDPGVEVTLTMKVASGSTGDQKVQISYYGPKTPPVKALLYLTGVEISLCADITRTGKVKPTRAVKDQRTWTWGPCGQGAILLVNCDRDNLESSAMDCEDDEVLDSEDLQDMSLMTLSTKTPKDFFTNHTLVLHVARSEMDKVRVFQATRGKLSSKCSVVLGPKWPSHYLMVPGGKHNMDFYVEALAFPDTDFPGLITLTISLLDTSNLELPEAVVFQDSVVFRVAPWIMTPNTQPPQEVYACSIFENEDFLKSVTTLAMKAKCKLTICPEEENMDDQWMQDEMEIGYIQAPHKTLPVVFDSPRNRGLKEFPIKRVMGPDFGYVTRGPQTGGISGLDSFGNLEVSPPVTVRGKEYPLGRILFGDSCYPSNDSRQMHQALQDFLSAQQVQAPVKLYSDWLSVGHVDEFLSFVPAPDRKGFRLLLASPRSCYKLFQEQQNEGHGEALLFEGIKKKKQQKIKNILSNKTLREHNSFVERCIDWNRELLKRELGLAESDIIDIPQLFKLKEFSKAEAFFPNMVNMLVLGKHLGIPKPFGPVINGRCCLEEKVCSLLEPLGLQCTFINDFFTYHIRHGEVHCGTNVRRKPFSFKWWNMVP
# assayProcedure: In vitro PAD4 BAEE biochemical assay
# experimentalParameters: BAEE substrate 3 mM, 5 nM PAD4, 2 mM calcium chloride; geometric mean of multiple experiments
Field: IC50. Provide a value for each of the compounds that follow.
Numbers only, in nM.

Take a look at these entries with their results.
C[C@@H]1[C@H](N)CCCN1C(=O)c1cc(F)c2c(c1)nc(-c1cc3ccc4nc3n1CCCCCc1nc3ccsc3cc1C(=O)N[C@@H]4C)n2C1CC1	5
COc1cc(C(=O)N2C[C@H](N)[C@@H]3CC[C@H]2C3)cc2nc(-c3cc4cc(F)c5cc4n3CC(F)(F)CCC[C@@H]3C[C@H]3C(=O)N[C@@H]5C)n(C)c12	29
C[C@H]1NC(=O)c2ccc(C#Cc3ccccc3)nc2CCCCCn2c(-c3nc4cc(C(=O)N5C[C@H](N)[C@@H]6CC[C@H]5C6)cc(F)c4n3C3CC3)cc3ccc1nc32	168

Working through the 7 compounds below one at a time, give IC50 for each.
1. CO[C@@H]1CCN(C(=O)c2cc(F)c3c(c2)nc(-c2cc4ccc5nc4n2CC(F)(F)CCC[C@@H]2C[C@H]2C(=O)N[C@@H]5C)n3[C@@H]2C[C@H]2F)C[C@@H]1N
2. COc1cc(C(=O)N2CCC[C@@H](N)C2)cc2nc(-c3cc4ccc5nc4n3CCCCCCCC(=O)N(C)C5)n(C)c12
3. COc1cc(C(=O)N2[C@H]3CC[C@@H]2[C@H](N)C3)cc2nc(-c3cc4ccc5nc4n3CCCCCCCC(=O)Nc3ncccc3-5)n(C)c12
4. C[C@@H]1[C@H](N)CCCN1C(=O)c1cc(F)c2c(c1)nc(-c1cc3ccc4nc3n1CC(F)(F)CCC[C@@H]1C[C@H]1C(=O)N[C@@H]4C)n2C1CC1
5. C[C@H]1NC(=O)[C@@H]2C[C@H]2CCCCCn2c(-c3nc4cc(C(=O)N5[C@H]6CC[C@@H]5[C@H](N)C6)cnc4n3C)cc3ccc1nc32
6. COc1cc(C(=O)N2[C@H]3CC[C@@H]2[C@H](N)C3)cc2nc(-c3cc4ccc5nc4n3C/C=C\CCCCS(=O)(=O)N[C@@H]5C)n(C)c12
7. COc1cc(C(=O)N2CCC[C@@H](N)C2)cc2nc(-c3cc4ccc5nc4n3CCC3(CC3)COCCC(=O)N[C@@H]5C)c(C)n12

30
622
113
15
26
40
525

Query COc1cc(C(=O)N2[C@H]3CC[C@@H]2[C@H](N)C3)cc2nc(-c3cc4ccc5nc4n3CCCCOCCC(=O)N3CCC[C@H]53)n(C)c12 yields IC50 of 28
